target: Beta-lactamase (Escherichia coli K-12, UniProt P00811); experiment: Assays are performed with beta -lactamases expressed in the pET system (Novagen, San Diego, Calif.) without signal peptides. They contain an N-terminal hexa-Histidine tag that is used for purification on Ni-NTA (Qiagen, Hilden, Germany). The compounds are prepared as 50 mM stocks in DMSO and diluted into buffer P1 (50 mM phosphate, pH 7) to a final concentration of 10% DMSO. All further dilutions are done in P2 (P1 with 10% DMSO). Enzyme and compound dilutions are pre-incubated for 10 min at 37 C. and the reaction is started with the addition of pre-warmed (37 C.) nitrocefin at a final concentration of […]. The change in absorption at 490 nm is followed at 37 C. for 10 min with 30 s intervals.
Sequence (P00811 whole entry): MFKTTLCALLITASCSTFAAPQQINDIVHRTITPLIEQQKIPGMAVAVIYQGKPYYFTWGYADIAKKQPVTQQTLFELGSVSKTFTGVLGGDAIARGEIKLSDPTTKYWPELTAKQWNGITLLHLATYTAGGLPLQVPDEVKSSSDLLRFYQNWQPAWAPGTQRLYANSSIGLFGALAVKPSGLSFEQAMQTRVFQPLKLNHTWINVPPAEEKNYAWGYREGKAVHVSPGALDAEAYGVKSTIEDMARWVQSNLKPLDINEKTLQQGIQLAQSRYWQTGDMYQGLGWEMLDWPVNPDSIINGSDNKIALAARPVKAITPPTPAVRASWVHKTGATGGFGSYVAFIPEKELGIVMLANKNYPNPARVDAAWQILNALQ

- Molecule: "[N-]=[N+]=NCC1C/C(=C2\\O[C@@H]3CC(=O)N3C2C(=O)OCc2ccccc2)C(=O)O1 (stereo partly drawn)"
  Assayed target: "Beta-lactamase (Escherichia coli K-12, UniProt P00811)"
  IC50 (nM): 305
- Molecule: "COC(=O)C1/C(=C2/CC(CI)OC2=O)O[C@@H]2CC(=O)N12 (stereo partly drawn)"
  Assayed target: "Beta-lactamase (Escherichia coli K-12, UniProt P00811)"
  IC50 (nM): 126
- Molecule: "CC1CC(=C2O[C@@H]3CC(=O)N3C2C(=O)O)C(=O)O1 (single isomer, unassigned)"
  Assayed target: "Beta-lactamase (Escherichia coli K-12, UniProt P00811)"
  IC50 (nM): 6080

Cited source for all entries: ChEMBL document CHEMBL3886147
